TARGET SYSTEM: SARS-CoV-2 M^pro (Severe acute respiratory syndrome coronavirus 2)
TEST: biochemical
Type: biochemical
APPLIED CONDITIONS: 200 nM M^pro, 5-fold gradient 0.032-20 µM, 3 h; read-out: IC50
MEASURED ATTRIBUTE: IC50 (µM)
The response must be a number in µM with no trailing unit.

# get_value(readout='IC50', item= CN1CCN(c2ccc(C(=O)Nc3n[nH]c4ccc(Cc5cc(F)cc(F)c5)cc34)c(NC3CCOCC3)c2)CC1 )
10.6

---

TARGET SYSTEM: SARS-CoV-2 M^pro (Severe acute respiratory syndrome coronavirus 2, UniProt P0DTD1)
TEST: biochemical
Assay type: biochemical
APPLIED CONDITIONS: 20 μM drug, 1.5 µM M^pro, 10 μM substrate, 3~6 h
MEASURED ATTRIBUTE: inhibitory efficacy on the enzymatic activity of M^pro (inhibition rate)

Recorded inhibitory efficacy on the enzymatic activity of M^pro (inhibition rate) for Cc1onc(-c2ccccc2Cl)c1C(=O)N[C@@H]1C(=O)N2[C@@H]1SC(C)(C)[C@@H]2C(=O)O with SARS-CoV-2 M^pro (Severe acute respiratory syndrome coronavirus 2, UniProt P0DTD1), please?
moderate inhibition

Query for SARS-CoV-2 M^pro (Severe acute respiratory syndrome coronavirus 2, UniProt P0DTD1): what inhibitory efficacy on the enzymatic activity of M^pro (inhibition rate) does the record show for C[C@@H]1CCO[C@H]2Cn3cc(C(=O)NCc4ccc(F)cc4F)c(=O)c(O)c3C(=O)N12 ?
moderate inhibition
